Some compounds, each annotated with its measured MIC.
- System: Pseudomonas aeruginosa
- experimental protocol: MIC ESKAPES panel, Pseudomonas aeruginosa
- Format: cell-based
- protocol conditions: Pseudomonas aeruginosa; Gram negative; n = 3 well replicates
*1 amine or outer side, *2 acyl side, *3 side chain or, on linkers, in order; H or OH if unused. Where a SMILES comes first, the peptide text is derived from it. [ ]: non-standard residue; d: D form. X1 = C#CCn1cc(C[C@H](N[*:1])C(=O)[*:2])c2ccccc21; NMeLeu(5-OH,4R) = CN[C@@H](C[C@@H](C)CO)C(=O)O; Phe(βR-OMe) = CO[C@H](c1ccccc1)[C@H](N)C(=O)O; Trp(1-Me) = Cn1cc(C[C@H](N)C(=O)O)c2ccccc21; NMeL = CN[C@@H](CC(C)C)C(=O)O; Pra = C#CC[C@H](N)C(=O)O

Please review the following examples before continuing.
• C#CCn1cc(C[C@@H]2NC(=O)[C@H](C(C)C)NC(=O)[C@H](CC(C)C)N(C)C(=O)[C@H](C(C)C)NC(=O)[C@H]([C@H](OC)c3ccccc3)NC(=O)[C@H](C)NC(=O)[C@H](C[C@@H](C)CO)N(C)C2=O)c2ccccc21 [Compound 5] (cyclo(A[Phe(βR-OMe)]V[NMeL]V[X1][NMeLeu(5-OH,4R)])) = > 50 µM
• COC(c1ccccc1)C1NC(=O)C(C)NC(=O)C(CC(C)CO)N(C)C(=O)C(Cc2cn(C)c3ccccc23)NC(=O)C(Cc2cn(CCCCCn3cc(CC4NC(=O)C(CC(C)C)N(C)C(=O)C(C(C)C)NC(=O)C(C(OC)c5ccccc5)NC(=O)C(C)NC(=O)C(CC(C)CO)N(C)C(=O)C(Cc5cn(C)c6ccccc56)NC4=O)nn3)nn2)NC(=O)C(CC(C)C)N(C)C(=O)C(C(C)C)NC1=O (centres unmarked) = > 50 µM
• COC(c1ccccc1)C1NC(=O)C(C)NC(=O)C(CC(C)CO)N(C)C(=O)C(Cc2cn(Cc3cn(CCOCCOCCOCCOCCn4cc(Cn5cc(CC6NC(=O)C(C(C)C)NC(=O)C(CC(C)C)N(C)C(=O)C(C(C)C)NC(=O)C(C(OC)c7ccccc7)NC(=O)C(C)NC(=O)C(CC(C)CO)N(C)C6=O)c6ccccc65)nn4)nn3)c3ccccc23)NC(=O)C(C(C)C)NC(=O)C(CC(C)C)N(C)C(=O)C(C(C)C)NC1=O (centres unmarked) = > 50 µM
• C#CC[C@@H]1NC(=O)[C@H](CC(C)C)N(C)C(=O)[C@H](C(C)C)NC(=O)[C@H]([C@H](OC)c2ccccc2)NC(=O)[C@H](C)NC(=O)[C@H](C[C@@H](C)CO)N(C)C(=O)[C@H](Cc2cn(C)c3ccccc23)NC1=O [Compound 10] (cyclo(A[Phe(βR-OMe)]V[NMeL][Pra][Trp(1-Me)][NMeLeu(5-OH,4R)])) = > 50 µM

With those in mind, consider the next compound.
**Q:** Give the observed MIC of COc1c(N2C[C@@H]3CCCN[C@@H]3C2)c(F)cc2c(=O)c(C(=O)O)cn(C3CC3)c12 [Moxifloxacin, reference compound] for Pseudomonas aeruginosa.
**A:** 2.5 µM
